B1: SLC35F2 (parent)
chain: SFMPLVIKVTSATSVNLGILTADL

- Variants of: B1
- protocol_details: protein stability index of a GFP-peptide fusion (GPS, HEK-293T) (PSI 1-6); higher = more stable;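 also: lentivirally expressed fusions sorted by FACS into six bins by GFP to DsRed ratio, PSI derived from sequencing read proportions per bin multiplied by bin number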
- reported_conditions: c terminus: a fixed tail appended
Class TRUE: protein stability index at least 3. Class FALSE: protein stability index below 3.

S11F; TRUE

Please indicate if the recorded protein stability index for K8C meets or exceeds 3.
TRUE

In plain terms: is recorded protein stability index at least 3 for P4A ?
FALSE

Please check the record G18S and state if its protein stability index is at or above 3.
TRUE

Identify whether the reported protein stability index of the following variant is 3 or greater: S14L
FALSE

Assess whether reported protein stability index for L20E sits at 3 or higher.
FALSE

Is it the case that M3I has protein stability index reaching or exceeding 3?
FALSE

Reported protein stability index at or above 3? L17E
FALSE

Cited source for all entries: the supplement of paper PMC10567573
